# assay.system: RSV postfusion F (postF), F ΔFP trimer, subtype A (Respiratory Syncytial Virus, subtype A, UniProt P03420 26-513)
# assay.procedure: BLI, IgG on anti-human IgG sensors, 100 nM antigen, apparent KD
pKd: −log10 of the molar value.
Returns met if the recorded pKd is greater than or equal to 9, and not met otherwise.

Query: I'd appreciate it if you could say whether ADI-41818 (antibody, V domains shown) VH: EVQLVESGGGLVQPGGSLRLSCAASGFTVNTNYMSWVRQAPGKGLEWVSIIYSSGSTSYADSVKGRFTISRDNSENTLYLQMHTLRAEDTAVYYCVRERTPFYYVSSGYWDSWGQGTLVTVSS VL: EIVLTQSPGTLSLSPGERATLSCRASQSVDSSYLAWYQQKPGQAPRLLIFGASSRATGIPDRFSGSGSGTDFTLTISRLEPEDFAVYYCQQYGFSYTFGQGTKVEIK has pKd at least equal to 9.
Response: met

Query: I'd appreciate it if you could say whether ADI-41842 (antibody, V domains shown, also called Ab 942; Antibody Number 942) VH: QVQLVQSGAEVKKPGASVRVSCKASGYTFTHYDINWVRQAPGQGLEWMGWINPNSGDTDYAQKFQGRVTMTVDTSISTAYLDLRSLTSADAAVYYCARGGAYATNGYYIIWFDPWGQGTLVTVSS VL: DIVVTQSPSSLSASVGDRVTITCRASQSISRYLNWFQKKPGKAPHLLIYAASILQSEVPSRFSGSGSGTDFTLTISSLQPEDFATYYCQQSYNSPYTFGPGTKVDIK has pKd at least equal to 9.
Response: met

Query: I'd appreciate it if you could say whether ADI-41817 (antibody, V domains shown) VH: QVQLVQSGAEVKKPGESLKISCKGPGYSFTTYWIGWVRQMPGKGLEWMGIIYPGDSDTKYSPSFQGQVTITADKSIATAYLQWSRLKASDTAVYYCATVVTYADNIRWFDSWGQGTLVTVSS VL: QSALTQPASVSGSPGQSITISCTGTSGDVGGYKFVSWYQHHPGKAPKLVIYDVANRPSGVSDRFSGSKSGTTASLTISGLQAEDEADYYCSSYTSSSTYVFGTGTKVTAL has pKd at least equal to 9.
Response: not met

Query: I'd appreciate it if you could say whether ADI-41841 (antibody, V domains shown) VH: EVQLLESGGGLVKPGGSLRLSCAASGFSFSYYSMNWVRQTPGKGLEWVSSISDRSSYISYADSVKGRFTISRDNAKNSLYLQMNSLRAEDTAVYYCARDQYESYAFDIWGQGTTVTVSS VL: DIQVTQSPSSLSASVGDRITITCQASQDVGNYLNWYQQKVGKAPKLLIHDASDLETGVPSRFSGSGSGTYFTFTISSLQPEDFATYYCQPYDNLRPVTFGQGTRLEIK has pKd at least equal to 9.
Response: met
